Test system: P. aeruginosa (ATCC 15442)
assay-protocol: MIC measurement (adapted CLSI M07-A11 broth dilution)
Type: cell-based
condition-notes: P. aeruginosa (ATCC 15442), MHB, overnight 37° C.
readout-type: MIC (µg/mL)
Please give a number only; it is taken to be in µg/mL.

In the examples that follow, each entry is paired with its recorded MIC.
• O=C([O-])CN(CCN(CC(=O)[O-])CC(=O)[O-])CC(=O)[O-].[Ag+].[Ag+].[Cu+2] [Ag2Cu(EDTA), reference compound] = 6
• O=C([O-])CN(CCN(CC(=O)[O-])CC(=O)[O-])CCN(CC(=O)[O-])CC(=O)[O-].[Ag+].[Ag+].[Bi+3] [Ag2Bi(DTPA), Ag2Bi(DPTA)] = 94
• O=C([O-])CN(CCN(CC(=O)[O-])CC(=O)[O-])CCN(CC(=O)[O-])CC(=O)[O-].[Ag+].[Ag+].[Al+3] [Ag2Al(DTPA)] = 450

Notebook: O=C(O)CN(CCN(CC(=O)O)CC(=O)O)CCN(CC(=O)O)CC(=O)O [DTPA, diethylenetriaminepentaacetic acid, reference compound] , MIC read as 2000
